system: MDA-MB-231; test: Antiproliferative activity against human MDA-MB-231 cells up to 100 nM incubated for 48 hrs by sulforhodamine B assay; format: functional, cell-based
The source made the active and inactive calls. The rule behind the calls is not given here. Numbered stars: 1 amine (or outer) side, 2 acyl side, 3 side chain; on linkers, the order of the positions; unused ones are H or OH. Square brackets hold non-standard residues; d marks the D form. Peptide text beside a SMILES is read from it. * marks the point of attachment. X2 = CCC(=O)/C=C/C[C@@H](C)C[C@H](N[*:1])C(=O)[*:2]; Hexenoyl(2E,4S-Me) = CC[C@H](C)/C=C/C(=O)*; Leu(3R-OH) = CC(C)[C@@H](O)[C@H](N)C(=O)O; Pro(4S-Me) = C[C@@H]1CN[C@H](C(=O)O)C1; NH((S)CH(CH3)CH2NHMe) = CNC[C@H](C)N*; Aib = CC(C)(N)C(=O)O; βAla = NCCC(=O)O
Observed Property: Activity

CCC(=O)/C=C/C[C@@H](C)C[C@H](NC(=O)[C@@H]1C[C@H](C)CN1C(=O)/C=C/[C@@H](C)CC)C(=O)N[C@H](C(=O)NC(C)(C)C(=O)N[C@@H](CC(C)C)C(=O)N[C@@H](CC(C)C)C(=O)NC(C)(C)C(=O)NC(C)(C)C(=O)NCCC(=O)N[C@@H](C)CNC)[C@H](O)C(C)C ({Hexenoyl(2E,4S-Me)}-[Pro(4S-Me)][X2][Leu(3R-OH)][Aib]LL[Aib][Aib][βAla]-{NH((S)CH(CH3)CH2NHMe)}): inactive
CC[C@H](C)/C=C/C(=O)N1C[C@@H](C)C[C@H]1C(=O)N[C@@H](CC(C)C)C(=O)N[C@H](C(=O)NC(C)(C)C(=O)N[C@@H](CC(C)C)C(=O)N[C@@H](CC(C)C)C(=O)NC(C)(C)C(=O)NC(C)(C)C(=O)NCCC(=O)N[C@@H](C)CNC)[C@H](O)C(C)C ({Hexenoyl(2E,4S-Me)}-[Pro(4S-Me)]L[Leu(3R-OH)][Aib]LL[Aib][Aib][βAla]-{NH((S)CH(CH3)CH2NHMe)}): inactive

====

test system: MDA-MB-231; assay: Antiproliferative activity against human MDA-MB-231 cells up to 100 nM incubated for 48 hrs by sulforhodamine B assay; type: functional, cell-based
Activity calls are given as the source filed them. The calls are words filed in the database; no cut-off is given here. Numbered stars: 1 amine (or outer) side, 2 acyl side, 3 side chain; on linkers, the order of the positions; unused ones are H or OH. Square brackets hold non-standard residues; d marks the D form. Peptide text beside a SMILES is read from it. * marks the point of attachment. X1 = CCC(=O)C[C@@H](O)C[C@@H](C)C[C@H](N[*:1])C(=O)[*:2]; X4 = CCCC[C@@H](O)C[C@@H](C)C[C@H](N[*:1])C(=O)[*:2]; X3 = CCC(=O)CCC[C@@H](C)C[C@H](N[*:1])C(=O)[*:2]; Hexenoyl(2E,4S-Me) = CC[C@H](C)/C=C/C(=O)*; Leu(3R-OH) = CC(C)[C@@H](O)[C@H](N)C(=O)O; NH((S)CH(Me)CH2NMe2) = C[C@@H](CN(C)C)N*; Pro(4S-Me) = C[C@@H]1CN[C@H](C(=O)O)C1; NH((S)CH(CH3)CH2NHMe) = CNC[C@H](C)N*; Aib = CC(C)(N)C(=O)O; βAla = NCCC(=O)O
Observed Property: Activity

CCC(=O)CCC[C@@H](C)C[C@H](NC(=O)[C@@H]1C[C@H](C)CN1C(=O)/C=C/[C@@H](C)CC)C(=O)N[C@H](C(=O)NC(C)(C)C(=O)N[C@@H](CC(C)C)C(=O)N[C@@H](CC(C)C)C(=O)NC(C)(C)C(=O)NC(C)(C)C(=O)NCCC(=O)N[C@@H](C)CN(C)C)[C@H](O)C(C)C ({Hexenoyl(2E,4S-Me)}-[Pro(4S-Me)][X3][Leu(3R-OH)][Aib]LL[Aib][Aib][βAla]-{NH((S)CH(Me)CH2NMe2)}): inactive
CCCC[C@@H](O)C[C@@H](C)C[C@H](NC(=O)[C@@H]1C[C@H](C)CN1C(=O)/C=C/[C@@H](C)CC)C(=O)N[C@H](C(=O)NC(C)(C)C(=O)N[C@@H](CC(C)C)C(=O)N[C@@H](CC(C)C)C(=O)NC(C)(C)C(=O)NC(C)(C)C(=O)NCCC(=O)N[C@@H](C)CNC)[C@H](O)C(C)C ({Hexenoyl(2E,4S-Me)}-[Pro(4S-Me)][X4][Leu(3R-OH)][Aib]LL[Aib][Aib][βAla]-{NH((S)CH(CH3)CH2NHMe)}): inactive
CCC(=O)C[C@@H](O)C[C@@H](C)C[C@H](NC(=O)[C@@H]1C[C@H](C)CN1C(=O)/C=C/[C@@H](C)CC)C(=O)N[C@H](C(=O)NC(C)(C)C(=O)N[C@@H](CC(C)C)C(=O)N[C@@H](CC(C)C)C(=O)NC(C)(C)C(=O)NC(C)(C)C(=O)NCCC(=O)N[C@@H](C)CNC)[C@H](O)C(C)C ({Hexenoyl(2E,4S-Me)}-[Pro(4S-Me)][X1][Leu(3R-OH)][Aib]LL[Aib][Aib][βAla]-{NH((S)CH(CH3)CH2NHMe)}): inactive
